B1: library; numbered along this chain (parent)
chain: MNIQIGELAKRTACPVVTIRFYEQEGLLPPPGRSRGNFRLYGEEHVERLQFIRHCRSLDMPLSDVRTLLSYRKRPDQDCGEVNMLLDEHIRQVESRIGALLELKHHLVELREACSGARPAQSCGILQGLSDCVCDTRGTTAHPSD

Variants of: B1
Assay: sfGFP reporter fluorescence (15 h) (µM FITC); higher = stronger transcriptional activation
Settings: library round: Round 1; ligand: 1 µM Pb
Output Met for sfGFP reporter fluorescence not less than 0.09; output Not met otherwise.

Exam item: decide whether the reported sfGFP reporter fluorescence for MNIQIGELAKRTACPVVTIRFYEQEGLLPPPGRSRGNFRLYGEEHVERLQFIRHCRSLDMPLSDVRTLLSYRKRPDQDCGEVNMLLDEHIRQVESRIGALLELKHHLVELREACGGARPAQSCGILQGLSCCVCDTRGTTAHPSD [S115G D131C] is at least 0.09.
Not met

Exam item: decide whether the reported sfGFP reporter fluorescence for MNIQIGELAKRTACPVVTIRFYEQEGLLPPPGRSRGNFRLYGEEHVERLQFIRHCRSLDMPLSDVRTLLSYRKRPDQDCGEVNMLLDEHIRQVESRIGALLELKHHLVELREACSGARPAQSCGLLQGLSCCVCDTRGTTAHPSD [I125L D131C] is at least 0.09.
Not met

Exam item: decide whether the reported sfGFP reporter fluorescence for MNIQIGELAKRTACPVVTIRFYEQEGLLPPPGRSRGNFRLYGEEHVERLQFIRHCRSLDMPLSDVRTLLSYRKRPDQDCGEVIMLLDECIRQVESRIGALLELKHHLVELREACSGARPAQSCGILQGLSDCVCDTRGTTAHPSD [N83I H89C] is at least 0.09.
Not met

Exam item: decide whether the reported sfGFP reporter fluorescence for MNIQIGELAKRTACPVVTIRFYEQEGLLPPPGRSRGNFRLYGEEHVERLQFIRHCRSLDLPLSKVRTLLSYRKRPDQDCGEVNMLLDEHIRQVESRIGALLELKHHLVELREACSGARPAQSCGILQGLSCCVCDTRGTTAHPSD [M60L D64K D131C] is at least 0.09.
Met

Exam item: decide whether the reported sfGFP reporter fluorescence for MNIQIGELAKRTACPVVTIRFYEQEGLLPPPGRSRGNFRLYGEEHVERLQFIRHCRSLDMPLSDVRTLLSYRKRPDQDCGEVTMLLDEHIRQVESRIGALLELKHHCVELREACSGARPAQSCGILQMLSDCVCDTRGTTAHPSD [N83T L107C G128M] is at least 0.09.
Met

Exam item: decide whether the reported sfGFP reporter fluorescence for MNIQIGELAKRTACPVVTIRFYEQEGLLPPPGRSRGNFRLYGEEHVERLQFIRHCRSLDMPLSDVRTLLSYRKRPDQDCGEVTMLLDEHIRQVESRIGALLELKHHLVELRAACSGARPAQSCGILQGLSDCVCDTRGTTAHPSD [N83T E112A] is at least 0.09.
Not met

Exam item: decide whether the reported sfGFP reporter fluorescence for MNIQIGELAKRTACPVVTIRFYEQEGLLPPPGRSRGNFRLYGEEHVERLQFIRHCRSLDMPISDVRTLLSYRKRPDQDCGEVNMLLDEHIRQVESRIGALLELKHHLVELLEACSGARPAQSCGILQGLSDCVCDTRGTTAHPSD [L62I R111L] is at least 0.09.
Not met

Exam item: decide whether the reported sfGFP reporter fluorescence for MNIQIGELAKRTACPVVTIRFYEQEGLLPPPGRSRGNFRLYGEEHVERLQFIRHCRSLDMPLSDVRTLLSYRKRPDQDCGEVNMLLDEHIRQVESRIGALLELKHHCVELREACSGARPAQSCGILQGLSDCVIDTRGTTAHPSD [L107C C134I] is at least 0.09.
Met

Exam item: decide whether the reported sfGFP reporter fluorescence for MNIQIGELAKRTACPVVTIRFYEQEGLLPPPGRSRGNFRLYGEEHVERLQFIRHCRSLDMPLSDVRTLLSYRKRPDQDCGEVNMLLDEHIRQVESRIGALLELKHHLVELREACSGARPAQSCGILQGLSSCVCPTRGTTAHPSD [D131S D135P] is at least 0.09.
Met

Exam item: decide whether the reported sfGFP reporter fluorescence for MNIQIGELAKRTACPVVTIRFYEQEGLLPPPGRSRGNFRLYGEEHVERLQFIRHCRSLDMPLSDVRTLLSYRKRPDQDCGEVTMLLDEHIRQVESRIGALLELKHHLVELRHACSGARPAQSCGILQGLSDCVCDTRGTTAHPSD [N83T E112H] is at least 0.09.
Not met

Exam item: decide whether the reported sfGFP reporter fluorescence for MNIQIGELAKRTACPVVTIRFYEQEGLLPPPGRSRGNFRLYGEEHVERLQFIRHCRSLDMPLSTVRTLLSYRKRPDQDCGEVNMLLDEHIRQVESRIGALLELTHHLVELREACSGARPAQSCGILQGLSDCVCDTRGTTAHPSD [D64T K104T] is at least 0.09.
Met

Exam item: decide whether the reported sfGFP reporter fluorescence for MNIQIGELAKRTACPVVTIRFYEQEGLLPPPGRSRGNFRLYGEEHVERLQFIRHCRSLDMNISDVRTLLSYRKRPDQDCGEVNMLLDEHIRQVESRIGALLELKHHLVELREACSGARPAQSCGILQGLSDCVCDTRGTTAHPSD [P61N L62I] is at least 0.09.
Not met

Exam item: decide whether the reported sfGFP reporter fluorescence for MNIQIGELAKRTACPVVTIRFYEQEGLLPPPGRSRGNFRLYGEEHVERLQFIRHCRSLDMPLSDVRTLLSYRKRPDQDCGEVNMLLDEHIRQVESRIGALLELKHHLIELREACSGARPAQSCGILQGLSCCVCDTRGTTAHPSD [V108I D131C] is at least 0.09.
Not met

Exam item: decide whether the reported sfGFP reporter fluorescence for MNIQIGELAKRTACPVVTIRFYEQEGLLPPPGRSRGNFRLYGEEHVERLQFIRHCRSLDMPLSDVRTLLSYRKRPDQDCGEVNMLLDEHIRQVESRIGALLELKHHLVELREACSGARPAQSCGILQHLSDCVCDTRGTTAHWSD [G128H P143W] is at least 0.09.
Not met

Exam item: decide whether the reported sfGFP reporter fluorescence for MNIQIGELAKRTACPVVTIRFYEQEGLLPPPGRSRGNFRLYGEEHVERLQFIRHCRSLDMPLSKVRTLLSYRKRPDQDCGEVNMLLDEHIRQVESRIGALLELKHHLVELREAFSGARPAQSCGILQGLSDCVCDTRGTTAHPSD [D64K C114F] is at least 0.09.
Not met

Exam item: decide whether the reported sfGFP reporter fluorescence for MNIQIGELAKRTACPVVTIRFYEQEGLLPPPGRSRGNFRLYGEEHVERLQFIRHCRSLDMPLSDVRTLLSYRKRPDQDCGEVNMLLDEHIRQVESRIGALLELKHHLVELREACSGARPAQSCGILQGLSSCVVDTRGTTAHPSD [D131S C134V] is at least 0.09.
Met

Exam item: decide whether the reported sfGFP reporter fluorescence for MNIQIGELAKRTACPVVTIRFYEQEGLLPPPGRSRGNFRLYGEEHVERLQFIRHCRSLDMPLSDVRTLLSYRKRPDQDCGEVNMLLDEHIRQVESRIGAILELKHHLVELREACSGARPAQSCGILQGLSDCVCDTRGTTAHPSD [L100I] is at least 0.09.
Not met

Exam item: decide whether the reported sfGFP reporter fluorescence for MNIQIGELAKRTACPVVTIRFYEQEGLLPPPGRSRGNFRLYGEEHVERLQFIRHCRSLDMNLSTVRTLLSYRKRPDQDCGEVNMLLDEHIRQVESRIGALLELKHHLVELREACSGARPAQSCGILQGLSCCVCDTRGTTAHPSD [P61N D64T D131C] is at least 0.09.
Met
